- System: Human alphaherpesvirus 3
- TEST_PROTOCOL: Antiviral activity against TK-defecient VZV 07-1 infected in HEL cells assessed as reduction in plaque formation after 5 days
- Type: functional, organism-based
- CONDITION_DETAILS: Human alphaherpesvirus 3, 07-1, HEL, 120 h
QUANTITY_MEASURED: EC50

1) O=c1c[n+]([O-])ccn1[C@@H]1C[C@H](O)[C@@H](CO)O1; > 438 µM
2) Cc1cn([C@@H]2C[C@H](O)[C@@H](CO)O2)c(=O)c[n+]1[O-]; > 412 µM
3) O=c1c[n+]([O-])ccn1[C@H]1C[C@H](O)[C@@H](CO)O1; > 438 µM
